Biological target: CV S-protein construct 6 trimer TP31001F (SARS-CoV-2, UniProt P0DTC2 14-1208)
Test: SPR
result.type: Kd (nM)
Report as a plain number; the unit nM is understood.

binder	result.type	recorded.number
variant 6-103 (Fc fusion) VHH: EVQLVESGGGLVQPGGSLRLSCAASGRTSSPIAMGWFRQAPGKEREPVAVRWSDDYTYYADSVKGRFTISADNSKNTAYLQMNSLKPEDTAVYYCAKKLGGYYAFDIWGQGTLVTVSS	Kd	1

Ask | What Kd value was documented for this binder, variant 6-6 (Fc fusion) VHH: EVQLVESGGGLVQPGGSLRLSCAASGTTLDYYAMGWFRQAPGKERELVAAISWSGGSTAYADSVKGRFTISADNSKNTAYLQMNSLKPEDTAVYYCAREDYYDSSGYSWGQGTLVTVSS ?
Reply | 67.7

Ask | Request the reported Kd associated with variant 6-45 (Fc fusion) VHH: EVQLVESGGGLVQPGGSLRLSCAASGNMFSINAMGWFRQAPGKEREFVTLISWSSGRTSYADSVKGRFTISADNSKNTAYLQMNSLKPEDTAVYYCASLGYCSGGSCFDYWGQGTLVTVSS
Reply | 1.3

Ask | So what does the record say about Kd for variant 5-56 (Fc fusion) VHH: EVQLVESGGGLVQPGGSLRLSCAASGRTFSSNMGWFRQAPGKEREFVARIFGGDRTLYADSVKGRFTISADNSKNTAYLQMNSLKPEDTAVYYCADINGDWGQGTLVTVSS ?
Reply | 2.77

Ask | Which measured Kd value corresponds to variant 6-5 (Fc fusion) VHH: EVQLVESGGGLVQPGGSLRLSCAASGRTFTMGWFRQAPGKEREFVASTNSAGSTNYADSVNGRFTISADNSKNTAYLQMNSLKPEDTAVYYCTTVDQYFDYWGQGTLVTVSS ?
Reply | 0.8

Ask | Find the recorded Kd belonging to variant 5-32 (Fc fusion) VHH: EVQLVESGGGLVQPGGSLRLSCAASGFTPDNYAMGWFRQAPGKEREFVAALGWSGVTTYHYYADSVKGRFTISADNSKNTAYLQMNSLKPEDTAVYYCASDESDAANWGQGTLVTVSS and report it.
Reply | 0.1

Ask | Look up Kd: variant 6-77 (Fc fusion) VHH: EVQLVESGGGLVQPGGSLRLSCAASGFTFDRSWMGWFRQAPGKEREFVAAVTEGGTTSYADSVKGRFTISADNSKNTAYLQMNSLKPEDTAVYYCARADYDFDYWGQGTLVTVSS
Reply | 3.5

Ask | Consider the binder variant 6-78 (Fc fusion) VHH: EVQLVESGGGLVQPGGSLRLSCAASGRTYDAMGWFRQAPGKEREFVASVTSGGYTHYADSVKGRFTISADNSKNTAYLQMNSLKPEDTAVYYCAKFGRKIVGATELDYWGQGTLVTVSS and give its measured Kd.
Reply | 0.4

Ask | Need Kd of variant 6-44 (Fc fusion) VHH: EVQLVESGGGLVQPGGSLRLSCAASGGTFGVYHMGWFRQAPGKEREFIGRITWTDGSTYYADSVKGRFTISADNSKNTAYLQMNSLKPEDTAVYYCFGLLEVYDMTFDYWGQGTLVTVSS , thanks.
Reply | 0.9

Ask | Report Kd for variant 6-82 (Fc fusion) VHH: EVQLVESGGGLVQPGGSLRLSCAASGSSLDAYGMGWFRQAPGKEREFVAAISWGGGSIYYADSVKGRFTISADNSKNTAYLQMNSLKPEDTAVYYCARLSQGMVALDYWGQGTLVTVSS please.
Reply | 0.6

Ask | For the binder shown here, variant 6-46 (Fc fusion) VHH: EVQLVESGGGLVQPGGSLRLSCAASGLTFSAMGWFRQAPGKEREFVALIRRDGSTIYADSVKGRFTISADNSKNTAYLQMNSLKPEDTAVYYCAALGILFGYDAFDIWGQGTLVTVSS , give the reported Kd.
Reply | 1.9

Ask | // lookup Kd for variant 6-22 (Fc fusion) VHH: EVQLVESGGGLVQPGGSLRLSCAASGRTFSEVVMGWFRQAPGKEREFVATIHSSGSTSYADSVKGRFTISADNSKNTAYLQMNSLKPEDTAVYYCVRVTSDYSMDSWGQGTLVTVSS
Reply | 1.8

Ask | Recorded Kd for variant 5-63 (Fc fusion) VHH: EVQLVESGGGLVQPGGSLRLSCAASGFSLDYYDMGWFRQAPGKEREFVAALGWSGGSTDYADSVKGRFTISADNSKNTAYLQMNSLKPEDTAVYYCAAGNGGRYGIVERWGQGTLVTVSS , please?
Reply | 0.4

Ask | Query (binder): variant 5-67 (Fc fusion) VHH: EVQLVESGGGLVQPGGSLRLSCAASGFNVNDYAMGWFRQAPGKEREFVAGITSSVGVTNYADSVKGRFTISADNSKNTAYLQMNSLKPEDTAVYYCAADIFFVNWGRGTLVTVSS ; field requested: Kd
Reply | 1

Ask | I have this binder here, variant 5-47 (Fc fusion) VHH: EVQLVESGGGLVQPGGSLRLSCAASGFTFGSYDMGWFRQAPGKEREFVTAINWSGARTAYADSVKGRFTISADNSKNTAYLQMNSLKPEDTAVYYCAARSVYSYEYNWGQGTLVTVSS , and I need its recorded Kd.
Reply | 0.7
